# assay-target: N2 influenza neuraminidase (Influenza A virus)
# Sequence (Q91MA2 whole entry, looked up): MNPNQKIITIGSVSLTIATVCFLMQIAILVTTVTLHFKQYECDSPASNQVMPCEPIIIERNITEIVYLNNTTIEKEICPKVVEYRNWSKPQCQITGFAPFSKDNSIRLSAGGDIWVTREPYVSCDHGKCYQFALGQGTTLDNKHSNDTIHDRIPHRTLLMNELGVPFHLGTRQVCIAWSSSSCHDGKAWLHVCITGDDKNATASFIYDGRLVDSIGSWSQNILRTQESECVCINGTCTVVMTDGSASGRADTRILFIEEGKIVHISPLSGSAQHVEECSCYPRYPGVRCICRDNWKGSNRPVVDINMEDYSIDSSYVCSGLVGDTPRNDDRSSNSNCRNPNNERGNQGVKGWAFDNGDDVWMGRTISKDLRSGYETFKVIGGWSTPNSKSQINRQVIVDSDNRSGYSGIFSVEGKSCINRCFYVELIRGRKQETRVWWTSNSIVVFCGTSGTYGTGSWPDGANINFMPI
experimental-endpoint: IC50 (µM)

{"columns": ["compound", "assay-target", "experimental-endpoint", "unit-text", "meas-value"],
 "data": [
  ["CNC(=N)N[C@H]1C=C(C(=O)O)O[C@@H]([C@H](O)[C@H](O)CO)[C@@H]1NC(C)=O [Example 3]", "N2 influenza neuraminidase (Influenza A virus)", "IC50", "µM", 12.1],
  ["CC(=O)N[C@H]1[C@H]([C@H](O)[C@H](O)CO)OC(C(=O)O)=C[C@@H]1NC(=N)N[N+](=O)[O-] [Example 4]", "N2 influenza neuraminidase (Influenza A virus)", "IC50", "µM", 2.65],
  ["CCOC(=O)NC(=N)N[C@H]1C=C(C(=O)O)O[C@@H]([C@H](O)[C@H](O)CO)[C@@H]1NC(C)=O [Example 5]", "N2 influenza neuraminidase (Influenza A virus)", "IC50", "µM", 17.1]
]}

Taken from patent EP0539204B1.
